test: Half-life in CD1 mouse at 1 mg/kg, iv; format: ADME, organism-based; details: in vivo
MEASUREMENT_KIND: half-life (h)
Could you give me the number in h? Just the number is fine.

Inquiry: Which half-life value is on record for Cn1ccnc1C(=O)c1ccc(NC(=O)CC(C(=O)O)c2ccc(C(F)(F)F)cc2)cc1 (configuration not stated) ?
Reply text: 2.9

Inquiry: And COC(=O)C(CC(=O)Nc1ccc(C(=O)c2nccn2C)cc1)c1ccc(C(F)(F)F)cc1 (configuration not stated) ?
Reply text: 1.19

====

assay: Half-life in CD1 mouse at 5 mg/kg, po; format: ADME, organism-based; settings: in vivo
MEASUREMENT_KIND: half-life (h)
Could you give me the number in h? Just the number is fine.

Inquiry: Which half-life value is on record for COC(=O)C(CC(=O)Nc1ccc(C(=O)c2nccn2C)cc1)c1ccc(C(F)(F)F)cc1 (configuration not stated) ?
Reply text: 1.63

Inquiry: And Cn1ccnc1C(=O)c1ccc(NC(=O)CC(C(=O)O)c2ccc(C(F)(F)F)cc2)cc1 (configuration not stated) ?
Reply text: 2.4

====

assay: Tmax in CD1 mouse at 5 mg/kg, po; format: ADME, organism-based; conditions: in vivo
MEASUREMENT_KIND: Tmax (min)
Could you give me the number in min? Just the number is fine.

Inquiry: Which Tmax value is on record for COC(=O)C(CC(=O)Nc1ccc(C(=O)c2nccn2C)cc1)c1ccc(C(F)(F)F)cc1 (configuration not stated) ?
Reply text: 15

Inquiry: And Cn1ccnc1C(=O)c1ccc(NC(=O)CC(C(=O)O)c2ccc(C(F)(F)F)cc2)cc1 (configuration not stated) ?
Reply text: 30

====

test: Lipophilicity, logP of compound; assay type: physicochemical; conditions: octanol/water
MEASUREMENT_KIND: logP
Give the figure only, with no unit attached.

Inquiry: Which logP value is on record for Cn1ccnc1C(=O)c1ccc(NC(=O)CC(C(=O)O)c2ccc(C(F)(F)F)cc2)cc1 (stereo unspecified) ?
Reply text: 2.47

====

test: Metabolic stability in mouse liver microsomes assessed as compound remaining after 60 mins; type: ADME, Microsome; details: read-out: Stability
MEASUREMENT_KIND: remaining at 1 h (%)
Could you give me the number in %? Just the number is fine.

Inquiry: Which remaining at 1 h value is on record for Cn1ccnc1C(=O)c1ccc(NC(=O)CC(C(=O)O)c2ccc(C(F)(F)F)cc2)cc1 (stereo unspecified) ?
Reply text: 88.4

====

assay: Metabolic stability in human liver microsomes assessed as compound remaining after 10 mins; type: ADME, Microsome; settings: read-out: Stability
MEASUREMENT_KIND: remaining at 10 min

Inquiry: Which remaining at 10 min value is on record for Cn1ccnc1C(=O)c1ccc(NC(=O)CC(C(=O)O)c2ccc(C(F)(F)F)cc2)cc1 (stereo unspecified) ?
Reply text: 95.5%

====

test: AUC(0 to infinity) in CD1 mouse at 1 mg/kg, iv; type: ADME, organism-based; details: in vivo
MEASUREMENT_KIND: AUC(0-inf)
Include the unit right after the number.

Inquiry: Which AUC(0-inf) value is on record for Cn1ccnc1C(=O)c1ccc(NC(=O)CC(C(=O)O)c2ccc(C(F)(F)F)cc2)cc1 (configuration not stated) ?
Reply text: 10 µM·h

Inquiry: And COC(=O)C(CC(=O)Nc1ccc(C(=O)c2nccn2C)cc1)c1ccc(C(F)(F)F)cc1 (configuration not stated) ?
Reply text: 0.328 µM·h

====

test: Cmax in CD1 mouse at 1 mg/kg, iv; format: ADME, organism-based; details: in vivo
MEASUREMENT_KIND: Cmax (µM)
Could you give me the number in µM? Just the number is fine.

Inquiry: Which Cmax value is on record for COC(=O)C(CC(=O)Nc1ccc(C(=O)c2nccn2C)cc1)c1ccc(C(F)(F)F)cc1 (configuration not stated) ?
Reply text: 1.02

Inquiry: And Cn1ccnc1C(=O)c1ccc(NC(=O)CC(C(=O)O)c2ccc(C(F)(F)F)cc2)cc1 (configuration not stated) ?
Reply text: 21.2

====

assay: Drug metabolism in mouse assessed as Cmax of 4-((4-(1-methyl-1H-imidazole-2-carbonyl)phenyl)amino)-4-oxo-2-(4-(trifluoromethyl)phenyl)butanoic acid at 1 mg/kg, iv; type: ADME, organism-based; settings: in vivo
MEASUREMENT_KIND: Cmax (nM)
Could you give me the number in nM? Just the number is fine.

Inquiry: Which Cmax value is on record for COC(=O)C(CC(=O)Nc1ccc(C(=O)c2nccn2C)cc1)c1ccc(C(F)(F)F)cc1 (stereo unspecified) ?
Reply text: 1010

====

assay: Metabolic stability in mouse liver microsomes assessed as compound remaining after 20 mins; format: ADME, Microsome; conditions: read-out: Stability
MEASUREMENT_KIND: remaining at 20 min
Include the unit right after the number.

Inquiry: Which remaining at 20 min value is on record for Cn1ccnc1C(=O)c1ccc(NC(=O)CC(C(=O)O)c2ccc(C(F)(F)F)cc2)cc1 (stereo unspecified) ?
Reply text: 96%

====

assay: Drug metabolism in mouse assessed as Cmax of 4-((4-(1-methyl-1H-imidazole-2-carbonyl)phenyl)amino)-4-oxo-2-(4-(trifluoromethyl)phenyl)butanoic acid at 5 mg/kg, po; type: ADME, organism-based; details: in vivo
MEASUREMENT_KIND: Cmax (µM)
Could you give me the number in µM? Just the number is fine.

Inquiry: Which Cmax value is on record for COC(=O)C(CC(=O)Nc1ccc(C(=O)c2nccn2C)cc1)c1ccc(C(F)(F)F)cc1 (stereo unspecified) ?
Reply text: 9.76

====

experiment: Metabolic stability in human liver microsomes assessed as compound remaining after 60 mins; type: ADME, Microsome; conditions: read-out: Stability
MEASUREMENT_KIND: remaining at 1 h (%)
Could you give me the number in %? Just the number is fine.

Inquiry: Which remaining at 1 h value is on record for Cn1ccnc1C(=O)c1ccc(NC(=O)CC(C(=O)O)c2ccc(C(F)(F)F)cc2)cc1 (stereo unspecified) ?
Reply text: 75.6

====

assay: Clearance in CD1 mouse at 1 mg/kg, iv; assay type: ADME, organism-based; conditions: CD1, mouse, in vivo
MEASUREMENT_KIND: clearance (mL/min/kg)
Could you give me the number in mL/min/kg? Just the number is fine.

Inquiry: Which clearance value is on record for COC(=O)C(CC(=O)Nc1ccc(C(=O)c2nccn2C)cc1)c1ccc(C(F)(F)F)cc1 (stereo unspecified) ?
Reply text: 110

====

experiment: Metabolic stability in mouse liver microsomes assessed as compound remaining after 10 mins; assay type: ADME, Microsome; conditions: read-out: Stability
MEASUREMENT_KIND: remaining at 10 min
Include the unit right after the number.

Inquiry: Which remaining at 10 min value is on record for Cn1ccnc1C(=O)c1ccc(NC(=O)CC(C(=O)O)c2ccc(C(F)(F)F)cc2)cc1 (stereo unspecified) ?
Reply text: 98.6%

====

experiment: Cmax in CD1 mouse at 5 mg/kg, po; format: ADME, organism-based; settings: in vivo
MEASUREMENT_KIND: Cmax (µM)
Could you give me the number in µM? Just the number is fine.

Inquiry: Which Cmax value is on record for COC(=O)C(CC(=O)Nc1ccc(C(=O)c2nccn2C)cc1)c1ccc(C(F)(F)F)cc1 (configuration not stated) ?
Reply text: 0.48

Inquiry: And Cn1ccnc1C(=O)c1ccc(NC(=O)CC(C(=O)O)c2ccc(C(F)(F)F)cc2)cc1 (configuration not stated) ?
Reply text: 10.4

====

assay: Volume of distribution in CD1 mouse at 1 mg/kg, iv; type: ADME, organism-based; settings: in vivo
Can you tell me Vd for the items I'm about to list?
Could you give me the number in L/kg? Just the number is fine.

Inquiry: Which Vd value is on record for COC(=O)C(CC(=O)Nc1ccc(C(=O)c2nccn2C)cc1)c1ccc(C(F)(F)F)cc1 (configuration not stated) ?
Reply text: 10

Inquiry: And Cn1ccnc1C(=O)c1ccc(NC(=O)CC(C(=O)O)c2ccc(C(F)(F)F)cc2)cc1 (configuration not stated) ?
Reply text: 0.9

====

experiment: Metabolic stability in mouse liver microsomes assessed as intrinsic clearance per mg protein; assay type: ADME, Microsome
MEASUREMENT_KIND: CLint

Inquiry: Which CLint value is on record for Cn1ccnc1C(=O)c1ccc(NC(=O)CC(C(=O)O)c2ccc(C(F)(F)F)cc2)cc1 (stereo unspecified) ?
Reply text: < 23 µL/min/mg

====

test: Metabolic stability in human liver microsomes assessed as intrinsic clearance per mg protein; type: ADME, Microsome
MEASUREMENT_KIND: CLint

Inquiry: Which CLint value is on record for Cn1ccnc1C(=O)c1ccc(NC(=O)CC(C(=O)O)c2ccc(C(F)(F)F)cc2)cc1 (stereo unspecified) ?
Reply text: < 23 µL/min/mg

====

So I've got pIC50 readings for L-lactate dehydrogenase A chain (Homo sapiens), take a look.
Quick note: pIC50 means taking -log10 of the concentration in moles per liter.

Inquiry: Which pIC50 value is on record for COC(=O)C(CC(=O)Nc1ccc(N2CCOCC2)c(F)c1)c1ccc(C(F)(F)F)cc1 (configuration not stated) ?
Reply text: 4.15

Inquiry: And COC(=O)C(CC(=O)Nc1ccc(C(=O)c2nccn2C)cc1)c1ccc(OC)cc1 (configuration not stated) ?
Reply text: 4.30

Inquiry: And COC(=O)C(CC(=O)Nc1ccc(C(=O)c2nccn2C)cc1)c1ccc(F)cc1 (configuration not stated) ?
Reply text: 4.42

Inquiry: And Cn1ccnc1C(=O)c1ccc(NC(=O)CC(C(=O)O)c2csc(-c3ccccc3)n2)cc1 (configuration not stated) ?
Reply text: 4.52
